- condition-description: in 1,4-dioxane, 318.15 K
readout: solubility (mole fraction)
I only need the number, thanks.

# lookup: solubility (mole fraction) of NC(=NCCCCCCN=C(N)/N=C(\N)Nc1ccc(Cl)cc1)/N=C(\N)Nc1ccc(Cl)cc1
0.00133

---

- condition-description: in water, 323.15 K
readout: solubility (mole fraction)
I only need the number, thanks.

# lookup: solubility (mole fraction) of NC(=NCCCCCCN=C(N)/N=C(\N)Nc1ccc(Cl)cc1)/N=C(\N)Nc1ccc(Cl)cc1
1.62e-05

---

- condition-description: in 1,4-dioxane, 303.15 K
readout: solubility (mole fraction)
I only need the number, thanks.

# lookup: solubility (mole fraction) of NC(=NCCCCCCN=C(N)/N=C(\N)Nc1ccc(Cl)cc1)/N=C(\N)Nc1ccc(Cl)cc1
0.000888

---

- condition-description: in methanol, 323.15 K
readout: solubility (mole fraction)
I only need the number, thanks.

# lookup: solubility (mole fraction) of NC(=NCCCCCCN=C(N)/N=C(\N)Nc1ccc(Cl)cc1)/N=C(\N)Nc1ccc(Cl)cc1
0.00173

---

- condition-description: in ethanol, 293.15 K
readout: solubility (mole fraction)
I only need the number, thanks.

# lookup: solubility (mole fraction) of NC(=NCCCCCCN=C(N)/N=C(\N)Nc1ccc(Cl)cc1)/N=C(\N)Nc1ccc(Cl)cc1
0.000539

---

- condition-description: in 1,4-dioxane, 308.15 K
readout: solubility (mole fraction)
I only need the number, thanks.

# lookup: solubility (mole fraction) of NC(=NCCCCCCN=C(N)/N=C(\N)Nc1ccc(Cl)cc1)/N=C(\N)Nc1ccc(Cl)cc1
0.00102

---

- condition-description: in water, 298.15 K
readout: solubility (mole fraction)
I only need the number, thanks.

# lookup: solubility (mole fraction) of NC(=NCCCCCCN=C(N)/N=C(\N)Nc1ccc(Cl)cc1)/N=C(\N)Nc1ccc(Cl)cc1
3.84e-06

---

- condition-description: in water, 303.15 K
readout: solubility (mole fraction)

# lookup: solubility (mole fraction) of NC(=NCCCCCCN=C(N)/N=C(\N)Nc1ccc(Cl)cc1)/N=C(\N)Nc1ccc(Cl)cc1
5.21e-06

---

- condition-description: in 1,4-dioxane, 323.15 K
readout: solubility (mole fraction)
I only need the number, thanks.

# lookup: solubility (mole fraction) of NC(=NCCCCCCN=C(N)/N=C(\N)Nc1ccc(Cl)cc1)/N=C(\N)Nc1ccc(Cl)cc1
0.00153

---

- condition-description: in water, 293.15 K
readout: solubility (mole fraction)
I only need the number, thanks.

# lookup: solubility (mole fraction) of NC(=NCCCCCCN=C(N)/N=C(\N)Nc1ccc(Cl)cc1)/N=C(\N)Nc1ccc(Cl)cc1
2.79e-06

---

- condition-description: in DMF, 283.15 K
readout: solubility (mole fraction)
I only need the number, thanks.

# lookup: solubility (mole fraction) of NC(=NCCCCCCN=C(N)/N=C(\N)Nc1ccc(Cl)cc1)/N=C(\N)Nc1ccc(Cl)cc1
0.00795

---

- condition-description: in DMF, 318.15 K
readout: solubility (mole fraction)

# lookup: solubility (mole fraction) of NC(=NCCCCCCN=C(N)/N=C(\N)Nc1ccc(Cl)cc1)/N=C(\N)Nc1ccc(Cl)cc1
0.0241

---

- condition-description: in methanol, 313.15 K
readout: solubility (mole fraction)
I only need the number, thanks.

# lookup: solubility (mole fraction) of NC(=NCCCCCCN=C(N)/N=C(\N)Nc1ccc(Cl)cc1)/N=C(\N)Nc1ccc(Cl)cc1
0.00137

---

- condition-description: in 1,4-dioxane, 298.15 K
readout: solubility (mole fraction)
I only need the number, thanks.

# lookup: solubility (mole fraction) of NC(=NCCCCCCN=C(N)/N=C(\N)Nc1ccc(Cl)cc1)/N=C(\N)Nc1ccc(Cl)cc1
0.000764

---

- condition-description: in 1,4-dioxane, 288.15 K
readout: solubility (mole fraction)

# lookup: solubility (mole fraction) of NC(=NCCCCCCN=C(N)/N=C(\N)Nc1ccc(Cl)cc1)/N=C(\N)Nc1ccc(Cl)cc1
0.000569

---

- condition-description: in DMF, 308.15 K
readout: solubility (mole fraction)
I only need the number, thanks.

# lookup: solubility (mole fraction) of NC(=NCCCCCCN=C(N)/N=C(\N)Nc1ccc(Cl)cc1)/N=C(\N)Nc1ccc(Cl)cc1
0.018

---

- condition-description: in ethanol, 318.15 K
readout: solubility (mole fraction)
I only need the number, thanks.

# lookup: solubility (mole fraction) of NC(=NCCCCCCN=C(N)/N=C(\N)Nc1ccc(Cl)cc1)/N=C(\N)Nc1ccc(Cl)cc1
0.00103

---

- condition-description: in water, 318.15 K
readout: solubility (mole fraction)
I only need the number, thanks.

# lookup: solubility (mole fraction) of NC(=NCCCCCCN=C(N)/N=C(\N)Nc1ccc(Cl)cc1)/N=C(\N)Nc1ccc(Cl)cc1
1.23e-05

---

- condition-description: in DMF, 288.15 K
readout: solubility (mole fraction)
I only need the number, thanks.

# lookup: solubility (mole fraction) of NC(=NCCCCCCN=C(N)/N=C(\N)Nc1ccc(Cl)cc1)/N=C(\N)Nc1ccc(Cl)cc1
0.00941

---

- condition-description: in methanol, 288.15 K
readout: solubility (mole fraction)
I only need the number, thanks.

# lookup: solubility (mole fraction) of NC(=NCCCCCCN=C(N)/N=C(\N)Nc1ccc(Cl)cc1)/N=C(\N)Nc1ccc(Cl)cc1
0.000751

---

- condition-description: in methanol, 303.15 K
readout: solubility (mole fraction)
I only need the number, thanks.

# lookup: solubility (mole fraction) of NC(=NCCCCCCN=C(N)/N=C(\N)Nc1ccc(Cl)cc1)/N=C(\N)Nc1ccc(Cl)cc1
0.00108

---

- condition-description: in methanol, 308.15 K
readout: solubility (mole fraction)
I only need the number, thanks.

# lookup: solubility (mole fraction) of NC(=NCCCCCCN=C(N)/N=C(\N)Nc1ccc(Cl)cc1)/N=C(\N)Nc1ccc(Cl)cc1
0.00123

---

- condition-description: in DMF, 303.15 K
readout: solubility (mole fraction)

# lookup: solubility (mole fraction) of NC(=NCCCCCCN=C(N)/N=C(\N)Nc1ccc(Cl)cc1)/N=C(\N)Nc1ccc(Cl)cc1
0.0153

---

- condition-description: in ethanol, 323.15 K
readout: solubility (mole fraction)
I only need the number, thanks.

# lookup: solubility (mole fraction) of NC(=NCCCCCCN=C(N)/N=C(\N)Nc1ccc(Cl)cc1)/N=C(\N)Nc1ccc(Cl)cc1
0.00117

---

- condition-description: in methanol, 298.15 K
readout: solubility (mole fraction)
I only need the number, thanks.

# lookup: solubility (mole fraction) of NC(=NCCCCCCN=C(N)/N=C(\N)Nc1ccc(Cl)cc1)/N=C(\N)Nc1ccc(Cl)cc1
0.000967
